Origin of values: PubChem BioAssay AID2696

- Assayed Target: Short transient receptor potential channel 6 (Mus musculus) (UniProt Q61143)
- Sequence (Q61143 whole entry, looked up): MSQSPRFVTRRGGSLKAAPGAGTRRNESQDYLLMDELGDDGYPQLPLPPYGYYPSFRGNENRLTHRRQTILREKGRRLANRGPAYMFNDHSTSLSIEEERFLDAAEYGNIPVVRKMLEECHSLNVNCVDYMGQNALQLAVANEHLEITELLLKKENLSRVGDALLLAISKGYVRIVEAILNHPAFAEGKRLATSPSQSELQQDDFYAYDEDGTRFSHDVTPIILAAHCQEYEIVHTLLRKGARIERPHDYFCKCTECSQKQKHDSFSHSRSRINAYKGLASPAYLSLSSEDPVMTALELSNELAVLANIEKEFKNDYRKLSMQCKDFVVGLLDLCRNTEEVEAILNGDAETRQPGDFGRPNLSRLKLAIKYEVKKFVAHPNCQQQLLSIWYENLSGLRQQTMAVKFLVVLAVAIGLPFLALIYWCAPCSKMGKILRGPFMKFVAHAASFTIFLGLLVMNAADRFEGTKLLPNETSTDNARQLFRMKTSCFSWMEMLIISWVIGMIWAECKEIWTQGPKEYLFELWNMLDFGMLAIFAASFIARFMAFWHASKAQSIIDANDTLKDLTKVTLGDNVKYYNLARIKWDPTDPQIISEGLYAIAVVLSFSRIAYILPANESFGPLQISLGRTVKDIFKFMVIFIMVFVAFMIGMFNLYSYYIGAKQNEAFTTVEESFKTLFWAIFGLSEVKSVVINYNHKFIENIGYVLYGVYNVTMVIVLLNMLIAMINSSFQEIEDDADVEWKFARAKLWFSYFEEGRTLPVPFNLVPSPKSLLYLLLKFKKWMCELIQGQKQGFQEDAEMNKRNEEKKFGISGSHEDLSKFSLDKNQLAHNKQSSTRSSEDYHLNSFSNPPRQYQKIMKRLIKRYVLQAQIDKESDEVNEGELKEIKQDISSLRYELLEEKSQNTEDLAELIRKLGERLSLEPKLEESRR
- Experiment Summary: TRPC6 inhibitor potency, dose response, cell-based, mouse TRPC6, HEK293, membrane potential (AID 2696)
- Protocol Conditions: TRPC6-expressing HEK293 cells, membrane potential dye fluorescence, acetylcholine-stimulated
pIC50: −log10 of the molar value.
Below, each entry is listed with its recorded pIC50.
Readout: pIC50

1. CC(C)(C)NCc1cc(Br)ccc1OC1CCCC1 : 4.35
2. OC(CCN1CCCCC1)(c1ccccc1)c1ccccc1 : 5.55
3. Cc1ccc(-c2cc(-c3ccc(C)cc3)[n+](-c3ccccc3)c(-c3ccc(C)cc3)c2)cc1 : 4.30
4. Oc1ccccc1Nc1nc(NCC2CCCO2)c2ccccc2n1 (stereo unspecified) : 4.30
5. CCN(CC)CC(=O)N1c2ccccc2Sc2ccc(Cl)cc21 : 4.35
6. Cn1c(=O)[nH]c(=O)c2c1nc(N1CCCCCC1)n2CCN1CCCCCC1 : 4.40
7. Clc1ccc(C(c2ccccc2)N2CCNCC2)cc1 (stereo unspecified) : 4.30
8. Cc1ccccc1OCC(=O)NCCS(=O)(=O)N1CCN(c2ccc(F)cc2)CC1 : 4.35
9. O=C(c1ccccc1)N1CCN(C2C3CC4CC(C3)CC2C4)CC1 (stereo unspecified) : 4.35
10. CCOC(=O)N1CCN(S(=O)(=O)c2cc(Br)cnc2N)CC1 : 4.70
11. C#CC[N+]1(C)[C@@H]2CC[C@H]1CC(OC(=O)C(CO)c1ccccc1)C2 (stereo partly specified) : 6.55

====

- Assayed Target: Short transient receptor potential channel 6 (Mus musculus)
- Experiment Summary: TRPC6 inhibitor potency, dose response, cell-based, mouse TRPC6, HEK293, membrane potential (AID 2696)
- Protocol Conditions: TRPC6-expressing HEK293 cells, membrane potential dye fluorescence, acetylcholine-stimulated
Below, each entry is listed with its recorded IC50.
Readout: IC50

1. O=[N+]([O-])c1cc([N+](=O)[O-])c2c(=Nc3ccccc3)n(-c3ccccc3)n(O)c2c1 : 50.1 µM
2. OC(C#CCN1CCCCCC1)(c1ccccc1)c1cccnc1 (stereo unspecified) : 39.8 µM
3. Cc1ccc(SC(=O)c2c([N+](=O)[O-])c(C)nn2C)cc1 : 35.5 µM
4. CCOCCCNC(=S)N1CCCN(c2nc3cc(C)ccc3cc2C#N)CC1 : 44.7 µM
5. O=C(CCCOc1ccc(Cl)cc1Cl)N1CCN(c2ccccn2)CC1 : 63.1 µM
6. CCOC(=O)c1nc2cc3n(c(C)c-2c1C)C(C)C(C)=C3C (stereo unspecified) : 44.7 µM
7. COc1ccc(N2C(=O)CSC23C(=O)N2CCCc4cccc3c42)cc1 (stereo unspecified) : 1.12 µM
8. Cn1c(=O)c(C#N)c(-c2ccc(F)cc2)c2cc(C(=O)c3cc(Cl)cc(Cl)c3O)cnc21 : 44.7 µM
9. COc1ccc(C2NC(=O)NC(O)(C(F)(F)F)C2C(=O)c2ccc(C)cc2)cc1 (stereo unspecified) : 14.1 µM
10. CCn1c2c(c(=N)c3ccccc31)CCC2 : 50.1 µM
11. C[N+]1(CCOC(=O)C2(c3ccccc3)CCCC2)CCCCC1 : 15.8 µM
12. CCN(CC)CC(=O)Nc1ccc(-c2nc3cc(NC(=O)CN(CC)CC)ccc3o2)cc1 : 79.4 µM
13. CC(Cc1ccccc1Sc1ccc(O)cc1)N(C)C (stereo unspecified) : 31.6 µM
14. O=C(CSc1ncccn1)N1CCN(C(c2ccccc2)c2ccccc2)CC1 : 50.1 µM
15. COc1ccccc1N1CCN(Cc2ccc(O)c3ncccc23)CC1 : 39.8 µM
16. CCCCCCn1c2c(c(=N)c3c1CCC3)CCC2 : 79.4 µM
17. C/C(=N/OC(=O)c1c(-c2c(Cl)cccc2Cl)noc1C)c1cnccn1 : 31.6 µM
18. CCN(CC)CCn1c(NC(=O)c2ccccc2O)nc2ccccc21 : 31.6 µM
19. CCC(CO)(C(=O)OC1C[N+]2(C)CCC1CC2)c1ccccc1 (stereo unspecified) : 1.58 µM
20. COC(=O)c1ccc(Nc2cc(C)nc3ccc(C)cc23)cc1 : 31.6 µM
21. OC(C#CCN1CCCC1)(c1ccccc1)c1ccccc1 : 3.98 µM
22. COC(=O)c1ccc(CN2CCN(C3CCCC3)C(CCO)C2)cc1 (stereo unspecified) : 35.5 µM
23. Cc1cc(C)c2nc(C)cc(Nc3ccc(C(=O)N4CCOCC4)cc3)c2c1 : 79.4 µM
24. Cc1cccc(NS(=O)(=O)c2cccc(C(=O)N3CCN(c4ccccn4)CC3)c2)c1 : 50.1 µM
25. Nc1c2c(nc3ccn(Cc4ccccc4)c(=O)c13)CCC2 : 70.8 µM
26. CC[N+](C)(CC)CCOC(=O)C(O)(c1ccccc1)C1CCCCC1 (stereo unspecified) : 0.79 µM
27. COc1ccc(Nc2ccnc3ccccc23)cc1 : 70.8 µM
28. S=c1[nH]nc(Cc2ccccc2)n1Cc1ccco1 : 39.8 µM
29. CCN(CC)CCCNc1nc2ccccc2c2nc(-c3ccncc3)nn12 : 44.7 µM
30. CCCCCOc1ccc(CSC(=N)N)cc1[N+](=O)[O-] : 79.4 µM
31. Nc1nc(N2CCN(C/C=C/c3ccccc3)CC2)nc2ccccc12 : 44.7 µM
32. CCN(CC)CCNc1nc2cc(OC)c(OC)cc2c2nc(-c3ccccc3)nn12 : 79.4 µM
33. CCCc1ncc(C(O)(c2ccccc2)c2ccccc2)n1C : 39.8 µM
34. Cc1cc(C)nc(/N=C(\N)N(Cc2ccccc2)Cc2ccccc2)n1 : 28.2 µM
35. OC(Cn1c2ccccc2c2ccccc21)C[n+]1cccc2ccccc21 (stereo unspecified) : 35.5 µM
36. CCN(CC)CCC/C(=N\O)C(O)(c1ccccc1)c1ccccc1 : 7.94 µM
37. COCC(C)NC(=O)c1ccc(CN2CCc3ccccc3C2)cc1 (stereo unspecified) : 44.7 µM
38. O=C(NC(Nc1nc2ccc([N+](=O)[O-])cc2s1)(C(F)(F)F)C(F)(F)F)c1ccccc1 : 8.91 µM
39. Cc1cc(N=Nc2ccccc2)c(NCC(O)C(O)C(O)CO)cc1C (stereo unspecified) : 50.1 µM
40. Cc1ccc(-c2nc(C(=O)NCCCN3CCOCC3)cc3c2[nH]c2ccccc23)cc1 : 50.1 µM
41. CC(Cc1ccccc1Sc1ccccc1O)N(C)C (stereo unspecified) : 39.8 µM
42. CN(C)c1ccc(C2N(C)C(=O)c3ccccc3N2C)cc1 (stereo unspecified) : 79.4 µM
43. CN(C)CCOC1c2ccccc2CSc2ccccc21 (stereo unspecified) : 12.6 µM
44. CCN(CC)CC(=O)Nc1cc(N(C)C)nc2ccccc12 : 70.8 µM
45. CCCCCC[N+](C)(C)CC/C=C1/c2ccccc2Sc2ccc(Cl)cc21 : 12.6 µM
46. Cc1ccc(S(=O)(=O)n2c(N)nc3ccccc32)cc1 : 17.8 µM

====

- Assayed Target: Short transient receptor potential channel 6 (Mus musculus) (UniProt Q61143)
- Experiment Summary: TRPC6 inhibitor potency, dose response, cell-based, mouse TRPC6, HEK293, membrane potential (AID 2696)
- Protocol Conditions: TRPC6-expressing HEK293 cells, membrane potential dye fluorescence, acetylcholine-stimulated
pIC50: −log10 of the molar value.
Readout: pIC50

1. COc1ccccc1C(=O)NCC1CCN(c2ccc(S(=O)(=O)N3CCOCC3)cc2)CC1 : 4.70
2. CCN(CC)CCNC(=O)c1nn(-c2ccc(C)cc2)c(=O)c2c1c1ccccc1n2C : 4.10
3. O=C(CNCCC1=CCCCC1)Nc1ccc(N2CCCCCC2)cc1 : 4.15
4. N=c1c(C(=O)NCC2CCCO2)cc2c(=O)n3ccccc3nc2n1Cc1ccccc1Cl (stereo unspecified) : 4.35
5. Oc1ccccc1Oc1ncc(Br)c(N2CCOCC2)n1 : 4.40
6. CCCc1cc(-c2[nH]ncc2-c2ccc3c(c2)OCCCO3)c(O)cc1O : 4.30

====

Below, each entry is listed with its recorded IC50.
- Assayed Target: Short transient receptor potential channel 6 (Mus musculus)
- Experiment Summary: TRPC6 inhibitor potency, dose response, cell-based, mouse TRPC6, HEK293, membrane potential (AID 2696)
- Protocol Conditions: TRPC6-expressing HEK293 cells, membrane potential dye fluorescence, acetylcholine-stimulated
Readout: IC50

1) Cc1ccc(OCCCCCCN2CCNCC2)c(Br)c1 : 79.4 µM
2) CN1CCCC(C#CC(O)(c2ccccc2)c2ccccc2)C1 (stereo unspecified) : 15.8 µM
3) CCC(CO)(C(=O)OC1CC2CCC(C1)N2C)c1ccccc1 (stereo unspecified) : 0.09 µM
4) CN(C)C(C)(C)C#CC(O)(c1ccccc1)c1ccccc1 : 39.8 µM
5) COc1ccc2nc(C)cc(Nc3ccc(N4CCN(C)CC4)cc3)c2c1 : 79.4 µM
6) Cc1cc(C)n(-c2nc(SCCN(C)C)c3c4c(sc3n2)COC(C)(C)C4)n1 : 79.4 µM
7) Cc1cccc(C(=O)NNC2=C(C(=O)C(F)(F)F)CCC2)c1O : 44.7 µM
8) CCN(c1ccccc1)S(=O)(=O)c1cccc(C(=O)N2CCN(S(=O)(=O)c3ccccc3)CC2)c1 : 63.1 µM
9) CCOC(=O)c1cn(C2CC2)c2c(F)c(NCCCN(C)C)c(F)cc2c1=O : 70.8 µM
10) Cc1onc(-c2ccccc2)c1C(=O)N/N=C/c1ccc([N+](=O)[O-])s1 : 39.8 µM
11) CCN(CC)CCCOC(=O)C(c1ccccc1)c1ccccc1 : 3.16 µM
